# experimentNotes: Drug uptake in FBV mouse brain at 30 mg/kg, sc after 1 hr
# Format: ADME, organism-based
outcomeMeasure: log10 of concentration at 1 h (log10 of the value in ng/g)
Hello, just confirming the data are log10 of concentration at 1 h with units of ng/g.

Challenge: Retrieve log10 of concentration at 1 h measured for "CC(=O)N[C@@H](Cc1cc(F)cc(F)c1)[C@H](O)[C@H]1C[C@@H](OCC2CCCCC2)CN1.Cl" and print it.
Response given: 1.54

Challenge: Retrieve log10 of concentration at 1 h measured for "CC(=O)N[C@@H](Cc1cc(F)cc(F)c1)[C@H](O)[C@H]1CC[C@@H](OCC2CCCCC2)CN1.Cl" and print it.
Response given: 1.94

Challenge: Retrieve log10 of concentration at 1 h measured for "CC[C@H](C)Nc1cc(C(=O)N[C@@H](Cc2ccccc2)[C@H](O)[C@H]2CCCN2)cc(S(C)(=O)=O)n1.Cl" and print it.
Response given: 2.03

Challenge: Retrieve log10 of concentration at 1 h measured for "CC(=O)N[C@@H](Cc1cc(F)cc(F)c1)[C@H](O)[C@H]1CO[C@@H](OCC2CCCCC2)[C@H](C)N1" and print it.
Response given: 2.42

Challenge: Retrieve log10 of concentration at 1 h measured for "CC(=O)N[C@@H](Cc1cc(F)cc(F)c1)[C@H](O)[C@H]1CO[C@@H](OCC(C)(C)C)[C@H](C)N1.Cl" and print it.
Response given: 2.87

Challenge: Retrieve log10 of concentration at 1 h measured for "CC(=O)N[C@@H](Cc1cc(F)cc(F)c1)[C@H](O)[C@H]1CO[C@@H](OCC2CCCCC2)CN1.O=C(O)C(F)(F)F" and print it.
Response given: 2.63
